Data origin, for the record: PubChem BioAssay (NCI)

tested on: MDA-MB-231 breast; experiment: NCI tumour cell line growth inhibition, 48 h
Give measured TGI for each item. Keep answers brief.

Record request: TGI value, item `COc1ccc(-c2c(N)n[nH]c2-c2cc(OC)c(OC)c(OC)c2)cc1`
> 100 µM

Can you look up the measured TGI of C=CCC(SC)C1=C(C)C(=O)c2ccccc21 (stereo not given) for me?
> 10 µM

I'd like to know its TGI. The molecule in question is CC1CC[C@@]2(OC1)OC1C[C@H]3[C@@H]4CCC5CC(O)CC[C@]5(C)[C@H]4C/C(=N\N(C)C)[C@]3(C)C1[C@@H]2C (stereo not given in full)
50.2 µM

Using the record for `C[N+](C)([O-])CCCNc1ccnc2cccc([N+](=O)[O-])c12` , report its TGI.
> 100 µM

Look at this molecule and give its reported TGI. `O=C1c2ccn(CCCCN3CCC(O)CC3)c2C(=O)c2c1c(O)c1ccccc1c2O`
38.3 µM

// TGI lookup, key: `C#CCN(Cc1nc2cc(C(F)(F)F)ccc2nc1-c1ccccc1)c1ccc(F)c(F)c1`
> 100 µM

Field request: TGI | item: `Cc1cc(C)c(N=Nc2c(O)c(S(=O)(=O)O)cc3cc(S(=O)(=O)O)ccc23)cc1C`
> 100 µM

Reported TGI for `COc1cc2c(cc1OC)-c1ncc3cc4c(cc3c1C2)OCO4` : what is it?
> 100 µM

Given the entry `CN(C)CCNc1nc2c(no[n+]2[O-])c2ccccc12` , report its measured TGI.
34.3 µM

Requested read-out: TGI. Entry: `Nc1ccc(-c2nc3ccccc3s2)cc1Br`
> 100 µM

* * *

Please provide measured TGI for the entries that follow.
system: HCT-116 colon; experiment: NCI tumour cell line growth inhibition, 48 h

Given the entry `CC(C)c1cccc(C(C)C)c1OS(=O)(=O)NC(=O)OC(C(F)(F)F)C(F)(F)F` , what TGI was observed with HCT-116 colon?
> 100 µM

Request body: readout TGI, system HCT-116 colon, query `CCOP(=O)(OCC)C(C)(C)OC(=O)NC#N` . Return the value.
> 100 µM

API: value(readout=TGI, system=HCT-116 colon) for record O=C(/C(=C/c1ccccc1)c1ccccc1)N1c2ccccc2CC1c1c[nH]c2ccccc12 (stereo not given)
> 100 µM

Lab note: need TGI with HCT-116 colon for entry CC(=O)N(CN1C(=O)CCC1C(=O)O)c1ccccc1Cl (stereo not given) , please look it up.
> 100 µM

// fetch HCT-116 colon TGI for `C1C[OH+]CC[OH+]CC[OH+]CC[OH+]CC[OH+]CC[OH+]1.[Cl-].[Nb+5]`
> 100 µM

Form field - read-out: TGI; system: HCT-116 colon; submitted item: `CC(=O)N1CCN(CCOc2ccc(C3CCN(C4=Nn5c(nnc5C(F)(F)F)CC4)CC3)cc2)CC1`
> 100 µM

So what TGI did CC1CC[C@@]2(OC1)OC1C[C@H]3[C@@H]4CCC5CC(O)CC[C@]5(C)[C@H]4C/C(=N\N(C)C)[C@]3(C)C1[C@@H]2C (stereo not given in full) get with HCT-116 colon?
60.3 µM

Observed TGI on HCT-116 colon for `C#CCN(C)C(=O)N(CC#C)N=O` , please.
> 100 µM

Which TGI is reported with HCT-116 colon for this entry: CC1(C)CC[C@]2(C(=O)O)[C@H](O)C[C@]3(C)C(=CC[C@@H]4[C@@]5(C)CC[C@H](OC6OC(C(=O)O)C(O)C(O)C6O)C(C)(C)[C@@H]5CC[C@]43C)[C@@H]2C1 (stereo not given in full) ?
> 100 µM

TGI of `COc1ccccc1NS(=O)(=O)c1ccc2ncn(NS(=O)(=O)c3ccc(Cl)cc3)c(=O)c2c1` on HCT-116 colon?
> 100 µM

Any idea what TGI came out for `CCOC(=O)NC(=O)c1c[nH]c(=O)[nH]c1=O` on HCT-116 colon?
> 100 µM

Lab note: need TGI with HCT-116 colon for entry `Oc1ccc(Cl)cc1-c1cc(-c2ccc(F)cc2)n[nH]1` , please look it up.
5.64 µM

TGI of `Cc1sc2ncn(Cc3ccc(Cl)c(Cl)c3)c(=O)c2c1C` on HCT-116 colon?
44.8 µM

Quick check: TGI on HCT-116 colon, item `c1ccc2nc(OCCN3CC3)ccc2c1` ?
15.5 µM

For the record C#CCOC(=O)C(N)CCSC (stereo not given) , what value of TGI is listed for HCT-116 colon?
> 100 µM

For the record `COc1ccc2c(c1)CC[C@@H]1[C@@H]2CC[C@]2(C)C=C(/C=C/C(=O)c3ccccc3)C[C@@H]12` , what value of TGI is listed for HCT-116 colon?
29.1 µM

Request: TGI, test system HCT-116 colon, entry `O=C(Nc1cccc(C(F)(F)F)c1)c1cc(Br)cc(Br)c1O`
5.44 µM

Give HCT-116 colon TGI for `C[N+](C)(N)c1nc(N)c(C#N)c(C#N)c1C#N`
> 10 µM

Give recorded TGI with HCT-116 colon for the following compound: O=C(c1ccccc1)C1C(C(=O)c2ccccc2)C(c2ccccc2)N(c2ccccc2)C1c1ccccc1 (stereo not given)
> 100 µM

TGI of N#Cc1c2c(c(-c3cccs3)n(C3OC(CO)C(O)C(O)C3O)c1=S)CCc1ccccc1-2 (stereo not given) on HCT-116 colon?
> 100 µM

* * *

tested on: COLO 205 colon; experiment: NCI tumour cell line growth inhibition, 48 h
MEASUREMENT_TYPE: TGI

Please give the measured TGI for this compound: N#Cc1c2c(c(-c3cccs3)n(C3OC(CO)C(O)C(O)C3O)c1=S)CCc1ccccc1-2 (stereo not drawn)
> 100 µM

Which value of TGI has been reported for `CC(C)c1cccc(C(C)C)c1OS(=O)(=O)NC(=O)OC(C(F)(F)F)C(F)(F)F` in the records?
> 100 µM

Need TGI of `Cc1cc(C)c(N=Nc2c(O)c(S(=O)(=O)O)cc3cc(S(=O)(=O)O)ccc23)cc1C` , thanks.
> 100 µM

Consider the compound `O=C1N[C@@H](COc2ccc(C=Nc3ccc(CCc4ccc(N=Cc5ccc(OC[C@@H]6COC(=O)N6)cc5)cc4)cc3)cc2)CO1` and give its measured TGI.
> 100 µM

What measured TGI goes with `COc1cc2c(cc1OCCCCCOc1cc3c(cc1OC)C(=O)N1CCC[C@H]1CN3)N=C[C@@H]1CCCN1C2=O` ?
> 100 µM

Give its TGI value. Item: `O=C(NN=C1CCCCC1)NN=C1CCCCC1`
> 100 µM

Given CC1CC[C@@]2(OC1)OC1C[C@H]3[C@@H]4CCC5CC(O)CC[C@]5(C)[C@H]4C/C(=N\N(C)C)[C@]3(C)C1[C@@H]2C (stereo partly drawn) , state its recorded TGI.
45 µM

Requested field: TGI. Item: `CCCCCCNC(=O)Oc1ccc(/C(=C(\C)c2ccccc2)c2ccc(OCCN(CC)CC)cc2)cc1`
2.49 µM

* * *

system: XF 498 CNS; test: NCI tumour cell line growth inhibition, 48 h
MEASUREMENT_TYPE: TGI

Could you tell me which TGI is on file for `CCOC(=O)/N=c1/nc(N(C)C)ss1` ?
> 100 µM

# get_value(readout='TGI', item= `NCP(=O)(O)OCC(=O)O` )
> 100 µM

What does the record list as TGI for COC(=O)C1CC(C(=O)OC)c2nc3cc(C)c(C)cc3nc21 (centres undefined) ?
> 100 µM

For the compound shown here, OCC(O)C(OC1OC(CO)C(O)C(O)C1O)c1nn(-c2ccccc2)c2nc3cc(Cl)ccc3nc12 (centres undefined) , give the reported TGI.
> 100 µM

* * *

system: OVCAR-8 ovarian; assay: NCI tumour cell line growth inhibition, 48 h
Would you kindly list TGI for each of these compounds?

Looking for the measured TGI of `C#Cc1cc2c(N)c(C(=O)c3cc(OC)c(OC)c(OC)c3)[nH]c2cc1OC` , can you help?
> 100 µM

I have this compound here, O=C(O)CC(O)(C(=O)O)C(O)C(=O)O (stereo not given) , and I need its recorded TGI.
> 1000 µM

Could you tell me which TGI is on file for C=CC(Br)(CBr)CCC(Br)C(C)C (stereo not given) ?
8.58 µM

Entry O=C1NC2(C=Cc3c(ccc4ccccc34)O2)Oc2ccccc21 (stereo not given) : reported TGI = ?
> 100 µM

Recorded TGI for `Nc1ccc(C(=O)N/C(=C\c2cccc([N+](=O)[O-])c2)c2nc3c4c(ccc3[nH]2)C(=O)c2ccccc2C4=O)cc1` , please?
> 100 µM

If you can, please state the reported TGI value of NC(=O)N/N=C(/c1nc2ccc([N+](=O)[O-])cc2[nH]c1=O)C(O)c1ccco1 (stereo not given) .
> 100 µM

Sample CN(C)CC1CCCC/C1=N/OC(=O)c1ccc(Cl)c(Cl)c1 (stereo not given) — what was its TGI?
> 100 µM

What value of TGI has been recorded for this entry: `COc1ccccc1NS(=O)(=O)c1ccc2ncn(NS(=O)(=O)c3ccc(Cl)cc3)c(=O)c2c1`
> 100 µM

Value lookup for TGI; key = `ClCC#CCSc1ncnc2c1ncn2CC#CCCl`
5.24 µM

What value of TGI has been reported for the following compound? `COc1cc2c(cc1OC)-c1ncc3cc4c(cc3c1C2)OCO4`
> 100 µM
